Test system: Staphylococcus aureus
Experimental Protocol: Antimicrobial activity against Staphylococcus aureus ATCC 25923 after 18 hrs by twofold agar dilution method
Assay type: functional
Conditions Used: ATCC 25923, 18 h, read-out: MIC
Experimental Readout: MIC (µg/mL)
// units = µg/mL; emit number, no label

# count of solved cases: 5
Input Smiles	Study System	Experimental Readout	Result
C[C@H](CO)[C@H]1CC[C@H]2[C@@H]3CC[C@H]4C[C@H](NCCCNCCCCNCCCN)CC[C@]4(C)[C@H]3CC[C@]12C.Cl.Cl.Cl.Cl	Staphylococcus aureus	MIC	16
C[C@H](CO)[C@H]1CC[C@H]2[C@@H]3CC[C@@H]4C[C@@H](NCCCNCCCCNCCCN)CC[C@]4(C)[C@H]3CC[C@]12C.Cl.Cl.Cl.Cl	Staphylococcus aureus	MIC	16
C[C@H](CO)[C@H]1CC[C@H]2[C@@H]3CC[C@@H]4C[C@H](NCCCNCCCCN)CC[C@]4(C)[C@H]3CC[C@]12C.Cl.Cl.Cl	Staphylococcus aureus	MIC	32
C[C@H](CO)[C@H]1CC[C@H]2[C@@H]3CC[C@@H]4C[C@@H](NCCCNCCCCN)CC[C@]4(C)[C@H]3CC[C@]12C.Cl.Cl.Cl	Staphylococcus aureus	MIC	16
C[C@H](CO)[C@H]1CC[C@H]2[C@@H]3CC[C@H]4C[C@@H](NCCCNCCCCNCCCN)CC[C@]4(C)[C@H]3CC[C@]12C.Cl.Cl.Cl.Cl	Staphylococcus aureus	MIC	32

// map C[C@H](CO)[C@H]1CC[C@H]2[C@@H]3CC[C@@H]4C[C@H](NCCCNCCCCNCCCN)CC[C@]4(C)[C@H]3CC[C@]12C.Cl.Cl.Cl.Cl to recorded MIC (system: Staphylococcus aureus)
32

// map C[C@H](CO)[C@H]1CC[C@H]2[C@@H]3CC[C@H]4C[C@H](NCCCNCCCCN)CC[C@]4(C)[C@H]3CC[C@]12C.Cl.Cl.Cl to recorded MIC (system: Staphylococcus aureus)
16

// map C[C@H](CO)[C@H]1CC[C@H]2[C@@H]3CC[C@H]4C[C@@H](NCCCNCCCCN)CC[C@]4(C)[C@H]3CC[C@]12C.Cl.Cl.Cl to recorded MIC (system: Staphylococcus aureus)
16

// map C[C@H](CO)[C@H]1CC[C@H]2[C@@H]3[C@H](N)C[C@H]4C[C@@H](NCCCNCCCCN)CC[C@]4(C)[C@H]3CC[C@]12C.Cl.Cl.Cl to recorded MIC (system: Staphylococcus aureus)
32
